target: microsomal recombinant human cytochrome P450 2A6 (CYP2A6) (Homo sapiens, UniProt P11509); experiment: Vivid fluorescence-based CYP2A6 inhibition screening; format: biochemical
Sequence (P11509 whole entry): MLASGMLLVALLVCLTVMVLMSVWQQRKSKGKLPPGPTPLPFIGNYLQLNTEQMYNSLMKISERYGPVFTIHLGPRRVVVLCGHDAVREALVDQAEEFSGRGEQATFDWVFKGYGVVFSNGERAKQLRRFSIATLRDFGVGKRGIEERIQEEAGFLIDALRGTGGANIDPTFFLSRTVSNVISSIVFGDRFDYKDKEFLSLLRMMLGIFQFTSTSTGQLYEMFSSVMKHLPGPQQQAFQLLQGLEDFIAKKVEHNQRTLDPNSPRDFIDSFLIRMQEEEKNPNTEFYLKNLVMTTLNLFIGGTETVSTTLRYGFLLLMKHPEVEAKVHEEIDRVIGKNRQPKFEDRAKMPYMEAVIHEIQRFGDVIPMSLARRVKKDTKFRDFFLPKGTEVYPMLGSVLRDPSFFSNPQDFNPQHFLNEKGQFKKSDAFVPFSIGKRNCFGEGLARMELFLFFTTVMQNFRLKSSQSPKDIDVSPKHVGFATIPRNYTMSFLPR
# maps each entry to its pIC50
By convention, pIC50 is the negative base-10 log of a molar concentration.

Worked set:
| compound | value-reported |
| --- | --- |
| COc1cc(C=O)ccc1O | 4.15 |
| O=C/C=C/c1ccccc1 [Cinnamaldehyde, trans-cinnamaldehyde] | 5.96 |
| O=Cc1ccccc1 | 5.52 |

Which pIC50 is listed for `CCOc1cc(C=O)ccc1O` ? 4.16
